System: Yap1 mRNA
Test protocol: Antisense inhibition of human Yap1 in A-431 cells by cEt gapmers, single dose (Example 2, RTS4814)
Assay type: cell-based
Test parameters: Table 32; Yap1 mRNA, percent of untreated control; 3-10-3 cEt gapmers targeting SEQ ID NO.: 1, and 2
Strand notation (5' to 3'): a small letter for the sugar, then the base; units joined by * are phosphorothioate-linked, units joined directly phosphodiester-linked; [ ] holds rarer units or linkages, { } end groups; capitals alone tell only the bases. k = constrained ethyl (cEt); [5mC] = 5-methylcytosine; d = 2'-deoxy (DNA)
Test readout: YAP1 (% UTC)
# number only, unit % UTC dropped from output

{"Substance": "1074802 (kG*kG*k[5mC]*dA*d[5mC]*dT*dA*d[5mC]*dA*dT*dT*dT*dA*kG*kA*kA; antisense) [compound 1074802]", "Tested system": "Yap1 mRNA", "Number": 37}
{"Substance": "1074642 (antisense kG*kG*kG*d[5mC]*d[5mC]*dA*dA*dA*dA*dT*dA*d[5mC]*dT*kT*kA*kG) [compound 1074642]", "Tested system": "Yap1 mRNA", "Number": 78}
{"Substance": "1075762 (kG*kA*kT*dA*dA*dA*dT*dG*dG*dG*dT*dT*dG*kA*kT*kT; antisense) [compound 1075762]", "Tested system": "Yap1 mRNA", "Number": 20}
{"Substance": "1075666 (antisense kA*kA*kA*dT*dT*dT*dA*dG*dT*dT*dG*dT*dG*k[5mC]*kA*k[5mC]) [compound 1075666]", "Tested system": "Yap1 mRNA", "Number": 106}
{"Substance": "1075122 (kG*kA*kA*dA*dA*dT*dT*dA*dG*d[5mC]*d[5mC]*dT*dA*k[5mC]*k[5mC]*kA; antisense) [compound 1075122]", "Tested system": "Yap1 mRNA", "Number": 16}
{"Substance": "1075698 (kG*kT*kT*dT*dA*dA*dT*dA*dA*dT*d[5mC]*d[5mC]*dA*kT*kG*k[5mC]; antisense) [compound 1075698]", "Tested system": "Yap1 mRNA", "Number": 10}
{"Substance": "1075602 (antisense kT*kA*kT*dT*dA*dT*dA*dA*dG*dT*d[5mC]*dT*dA*k[5mC]*kA*kA) [compound 1075602]", "Tested system": "Yap1 mRNA", "Number": 114}
{"Substance": "1074674 (antisense kT*kA*kT*dA*dG*dG*d[5mC]*dA*d[5mC]*dT*d[5mC]*d[5mC]*dT*kT*k[5mC]*k[5mC]) [compound 1074674]", "Tested system": "Yap1 mRNA", "Number": 22}
{"Substance": "1075634 (antisense kA*kG*kA*d[5mC]*dT*dA*dT*dA*dT*dT*dG*dG*d[5mC]*kT*k[5mC]*k[5mC]) [compound 1075634]", "Tested system": "Yap1 mRNA", "Number": 65}
{"Substance": "1076562 (kT*kA*kT*dT*dA*d[5mC]*dA*dG*dA*dG*dG*dG*dT*kA*kG*k[5mC]; antisense) [compound 1076562]", "Tested system": "Yap1 mRNA", "Number": 17}

Request: Give its YAP1 (% UTC) value. Item: 1076402 (antisense k[5mC]*kG*kT*dA*dA*dT*dT*dA*dT*dT*dT*dT*dT*kG*k[5mC]*kT) [compound 1076402]
Result: 38

Request: Give its YAP1 (% UTC) value. Item: 1074322 (antisense kA*kG*kG*dG*d[5mC]*dT*dA*dA*d[5mC]*dT*d[5mC]*d[5mC]*dT*kG*kA*k[5mC]) [compound 1074322]
Result: 94

Request: Give its YAP1 (% UTC) value. Item: 1076178 (k[5mC]*k[5mC]*kT*dG*dA*dA*dA*dT*dA*d[5mC]*dA*dG*dG*kT*kG*kT; antisense) [compound 1076178]
Result: 100

Request: Give its YAP1 (% UTC) value. Item: 1075570 (kG*kA*kT*dA*d[5mC]*dT*dA*dA*dG*d[5mC]*dA*d[5mC]*dA*kG*kA*kG; antisense) [compound 1075570]
Result: 16

Request: Give its YAP1 (% UTC) value. Item: 1075954 (kA*kT*kT*dT*dA*dA*dG*dG*d[5mC]*dT*dG*dT*dG*kT*kT*k[5mC]; antisense) [compound 1075954]
Result: 50
